Taken from the supplement of paper PMC11780869.

System: Bacillus subtilis
experimentDescription: cleaved RNA product abundance (RNA/gDNA barcode ratio) relative to median wild-type variant (ratio to wild type); higher = more accumulation of the downstream cleavage product
details: experiment (reporter, strain, medium): exp 4a: truncated aprE reporter, strain BJT201 with 2% xylose (RNase J1 expressed); cleavage site: cggR-gapA (positions -7 to +36 mutated)
recordedEndpoint: cleaved RNA product abundance
A bare number is all that is needed in reply.

Consider the worked cases shown below.
1. ACAGACGAAGGAGCCGCAAAGAAGTTATGAAGCGATGAATAATCCCTCAATATAAATATCTCTCACTTATTTAAA	0.0897
2. ACAGACGAAGGAGCCGCAAAAAAGTTATTAAGGGATGAATAATCCCTCAATATAAAGATCTCTCACTTATTTAAA	0.56
3. ACAGACGAAGGAGCCGCAAAGAAGTTATTAAGGGTTGAGTAATCCCTCAATATAAATATCTCTCACTTATTTAAA	0.375
4. ACAGACGAAGGAGCCGCAAAGAAGTTATTAAGCGATAAATAATCCCTCAATATAAATATCTCTCACTTATTTAAA	0.0716
5. ACAGACGAAGGAGCCGCAAAGAAGATATTAAGGGATGAATAATTCCTCAATATAAATATCTCTCACTTATTTAAA	1.05

Would you please give the reported cleaved RNA product abundance of ACAGACGAAGGAGCCGCAAAGAAGTTATTAAGAGATGAATAATACCTCAATATATATATCTCTCACTTATTTAAA with Bacillus subtilis? 0.174

Would you please give the reported cleaved RNA product abundance of ACAGACGAAGGAGCCGCAAAGAAGTTATTAAGGGATGAATAATCCCTCAAAATAAATATTTCTCACTTATTTAAA with Bacillus subtilis? 0.319

====

Test system: Bacillus subtilis
experimentDescription: cleaved RNA product abundance (RNA/gDNA barcode ratio) relative to median wild-type variant (ratio to wild type); higher = more accumulation of the downstream cleavage product
details: experiment (reporter, strain, medium): exp 4a: truncated aprE reporter, strain BJT201 with 2% xylose (RNase J1 expressed); cleavage site: cggR-gapA (positions -7 to +36 mutated)
recordedEndpoint: cleaved RNA product abundance
A bare number is all that is needed in reply.

Consider the worked cases shown below.
1) ACAGACGAAGGAGCCGCAATGAAATTATTAAGGGATTAATAATCCCTCAATATAAATATCTCTCACTTATTTAAA	0.695
2) ACAGACGAAGGAGCCGCAAAGAAGTTATTAAGGGATGAATAATCACTCAATATAAATATCTCTCACTTATTTAAA	0.14

# return recorded cleaved RNA product abundance for entry ACAGACGAAGGAGCCGCAAATAAGTTATTAAGGGATGAATAATCCCTTAATATAAATATCTCTCACTTATTTAAA 0.452

# return recorded cleaved RNA product abundance for entry ACAGACGAAGGAGCCGCAAAGAAGATATTAAGGGATGAATAATCACTCAATATAAATATCTCTCACTTATTTAAA 0.143

====

System: Bacillus subtilis
experimentDescription: cleaved RNA product abundance (RNA/gDNA barcode ratio) relative to median wild-type variant (ratio to wild type); higher = more accumulation of the downstream cleavage product
details: experiment (reporter, strain, medium): exp 8a: truncated aprE reporter, strain BJT201 with 2% xylose (RNase J1 expressed); cleavage site: glnRA (positions -5 to +31 mutated)
recordedEndpoint: cleaved RNA product abundance

1. CGACATGTCCCGCTTCTTTCATTAATCCGTTAGTAACTGTTTTGCTATATACATTTACGTTTTAAGAGGAGGAAT	0.581

# return recorded cleaved RNA product abundance for entry CGACATGTCCCGCTTCTTTCATTAATCCGTTATCAACTGTTTTGCTATATACATTTATCTTTTAAGAGGAGGAAT 0.347

# return recorded cleaved RNA product abundance for entry CGACATGTCCCGCTTCTTTCATTAGTCCGTTAGCAACTGTTTTGCTATATACATTTACCTTTTAAGAGGAGGAAT 0.767

# return recorded cleaved RNA product abundance for entry CGACATGTCCCGCTTCTTTCATTAATCCGTTAGTAACTGTTTTGCAATATACATTTACCTTTTAAGAGGAGGAAT 0.316

# return recorded cleaved RNA product abundance for entry CGACATGTCCCGCTTCTTTCATTAATCCGTTAGCAACTGGTTTGATATATACATTTACCTTTTAAGAGGAGGAAT 0.485

# return recorded cleaved RNA product abundance for entry CGACATGTCCCGCTTCTTTCATTAATCCGTTAGGAACTGTTTTGCTATATACATTTGCCTTTTAAGAGGAGGAAT 0.376

# return recorded cleaved RNA product abundance for entry CGACATGTCCCGCTTCTTTCATTATTCCGTTAGCAACTGGTTTGCTATATACATTTACCTTTTAAGAGGAGGAAT 1.54

====

Tested on: Bacillus subtilis
experimentDescription: cleaved RNA product abundance (RNA/gDNA barcode ratio) relative to median wild-type variant (ratio to wild type); higher = more accumulation of the downstream cleavage product
details: experiment (reporter, strain, medium): exp 2b: truncated aprE reporter, strain BJT200; cleavage site: cggR-gapA (positions -7 to +36 mutated)
recordedEndpoint: cleaved RNA product abundance
A bare number is all that is needed in reply.

Would you please give the reported cleaved RNA product abundance of ACAGACGAAGGAGCCGCAGAGAAGTTATTAAAGGATGAATAATCCCTCAATATAAATATCTCTCACTTATTTAAA with Bacillus subtilis? 0.128

Would you please give the reported cleaved RNA product abundance of ACAGACGAAGGAGCCGCGAAGAAGTTATTTAGGGATGAATAATCCCTCAATATAAATATCTCTCACTTATTTAAA with Bacillus subtilis? 0.572

Would you please give the reported cleaved RNA product abundance of ACAGACGAAGGAGCCGCAAAGAAGTTATTAAGCGATGAATAATCCCGCAATATAAATATCTCTCACTTATTTAAA with Bacillus subtilis? 0.0603

Would you please give the reported cleaved RNA product abundance of ACAGACGAAGGAGCCGCAAAGAAGTTATTAAGGCATGAATAATCCCTGAATATAAATATCTCTCACTTATTTAAA with Bacillus subtilis? 0.102

Would you please give the reported cleaved RNA product abundance of ACAGACGAAGGAGCCGCAAAGAAGTTATTAAGGGATGAATAATCACTCAATATAGATATCTCTCACTTATTTAAA with Bacillus subtilis? 0.143

Would you please give the reported cleaved RNA product abundance of ACAGACGAAGGAGCCGCAAAGAAGTTAATAAGGGATGAACAATCCCTCAATATAAATATCTCTCACTTATTTAAA with Bacillus subtilis? 0.251

Would you please give the reported cleaved RNA product abundance of ACAGACGAAGGAGCCGCAAAGAAGTTATTAAGAGATGAATTATCCCTCAATATAAATATCTCTCACTTATTTAAA with Bacillus subtilis? 0.102

Would you please give the reported cleaved RNA product abundance of ACAGACGAAGGAGCCGCAAATAAGTTATTAAGGGATGAATACTCCCTCAATATAAATATCTCTCACTTATTTAAA with Bacillus subtilis? 0.682

Would you please give the reported cleaved RNA product abundance of ACAGACGAAGGAGCCGCACAGAAGTTATTAAGGGATGAATAATCCCTCAATATAAATATCTCTCACTTATTTAAA with Bacillus subtilis? 0.962

Would you please give the reported cleaved RNA product abundance of ACAGACGAAGGAGCCGCATAGAAGTTATTAAGGAATGAATAATCCCTCAATATAAATATCTCTCACTTATTTAAA with Bacillus subtilis? 0.082

Would you please give the reported cleaved RNA product abundance of ACAGACGAAGGAGCCGCAAAGAAGTTATTATGGGATGAATAATCCCTCCATATAAATATCTCTCACTTATTTAAA with Bacillus subtilis? 0.361

Would you please give the reported cleaved RNA product abundance of ACAGACGAAGGAGCCGCAAAGAAGTTATTAACCGATGAATAATCCCTCAATATAAATATCTCTCACTTATTTAAA with Bacillus subtilis? 0.0926

Would you please give the reported cleaved RNA product abundance of ACAGACGAAGGAGCCGCAAAGAAGTTATTAAGGGATGAATAATACCTCAATATTAATATCTCTCACTTATTTAAA with Bacillus subtilis? 0.0803

Would you please give the reported cleaved RNA product abundance of ACAGACGAAGGAGCCGCAAAGAAGAAATTAAGGGATGAATAATCCCTCAATATAAATATCTCTCACTTATTTAAA with Bacillus subtilis? 0.171

Would you please give the reported cleaved RNA product abundance of ACAGACGAAGGAGCCGCAAAGAAGTTATTAAGGGATGAACAATCCCTAAATATAAATATCTCTCACTTATTTAAA with Bacillus subtilis? 0.33

====

Consider the following sequences and their measured cleaved RNA product abundance readings.
Tested on: Bacillus subtilis
experimentDescription: cleaved RNA product abundance (RNA/gDNA barcode ratio) relative to median wild-type variant (ratio to wild type); higher = more accumulation of the downstream cleavage product
details: experiment (reporter, strain, medium): exp 2b: truncated aprE reporter, strain BJT200; cleavage site: cggR-gapA (positions -7 to +36 mutated)
A bare number is all that is needed in reply.

Consider the worked cases shown below.
1. ACAGACGAAGGAGCCGCAAAGAAGTTATTAAGGGATGAATAATCCACCAATATAAATATCTCTCACTTATTTAAA	0.186
2. ACAGACGAAGGAGCCGCAAACAAGTTATTAAGGGATGAATAATCCCTCAATATTAATATCTCTCACTTATTTAAA	0.12
3. ACAGACGAAGGAGCCGCAAAGAAGTTATTAAGGGATTAATAATCCCTCAATATAAATAACTCTCACTTATTTAAA	1.02

Proceed to the following item.
# return recorded cleaved RNA product abundance for entry ACAGACGAAGGAGCCGCAAAGAAGTTATTAAGGGATGAAAAATCCCTCAAGATAAATATCTCTCACTTATTTAAA 0.159
